# ASSAY COMMENT: Cytotoxicity against MDCK cells assessed as reduction in cell viability incubated for 48 hrs
# Assay type: cell-based, Canis lupus familiaris
# CONDITIONS USED: dog, read-out: TC50

{"ITEM SMILES": "C=C(C(=O)Nc1ncc(B(O)O)cn1)[C@@H]1CC[C@H](C)[C@@H]2CC(=O)C(C)=C2C1", "UNIT TEXT": "µM", "CC50 at 48 h": 315}
{"ITEM SMILES": "C=C(C(=O)OC)[C@@H]1CC[C@H](C)[C@H]2C(=C(C)C(=O)[C@H]2NS(=O)(=O)c2ccc(F)cc2)C1", "UNIT TEXT": "µM", "CC50 at 48 h": 25.1}
{"ITEM SMILES": "C=C(C(=O)OC)[C@@H]1CC[C@H](C)[C@H]2C(=C(C)C(=O)[C@H]2NC(=O)c2ccccc2)C1", "UNIT TEXT": "µM", "CC50 at 48 h": 84.3}
{"ITEM SMILES": "C=C(C(=O)OC)[C@@H]1CC[C@H](C)[C@H]2C(=C(C)C(=O)[C@H]2NS(=O)(=O)c2ccc(C)cc2)C1", "UNIT TEXT": "µM", "CC50 at 48 h": 61.1}
{"ITEM SMILES": "C=C(C(=O)OC)[C@@H]1CC[C@H](C)[C@H]2C(=C(C)C(=O)[C@H]2NC(=O)CNC(=O)c2ccccc2)C1", "UNIT TEXT": "µM", "CC50 at 48 h": 488}
{"ITEM SMILES": "C=C(C(=O)OC)[C@@H]1CC[C@H](C)[C@H]2C(=C(C)C(=O)[C@H]2NC(C)=O)C1", "UNIT TEXT": "µM", "CC50 at 48 h": 753}
{"ITEM SMILES": "CCOC(=O)C1=C[C@@H](OC(CC)CC)[C@H](NC(C)=O)[C@@H](N)C1", "UNIT TEXT": "µM", "CC50 at 48 h": 1410}
{"ITEM SMILES": "C=C(C(=O)Nc1cccc(B(O)O)c1)[C@@H]1CC[C@H](C)[C@@H]2CC(=O)C(C)=C2C1", "UNIT TEXT": "µM", "CC50 at 48 h": 632}
